Hello, the source for this data is paper PMC5863483, in case you need it.

Biological target: HLA-A*02:01 (Homo sapiens, UniProt P04439, D140Y/D185E/D98H/E176V/E277Q/G131W/G231S/I119V/I121R/I166T/I218V/L300P/L318F/N151K/N90K/P208A/P217A/Q86G/Q94H/R138H/R169H/T345S)
Experiment: HLA-peptide competition binding assay, A*02:01
Where a SMILES comes first, the peptide text is derived from it. [ ]: non-standard residue; d: D form. Cya = N[C@@H](CS(=O)(=O)O)C(=O)O; Cit = NC(=O)NCCC[C@H](N)C(=O)O
Mark y only for IC50 values smaller than 1 µM; exact matches and larger values are n.

CSCC[C@H](NC(=O)[C@@H](N)Cc1c[nH]c2ccccc12)C(=O)N[C@@H](CCCNC(N)=O)C(=O)N[C@@H](CC(C)C)C(=O)N[C@@H](CC(C)C)C(=O)N1CCC[C@H]1C(=O)N[C@@H](CC(C)C)C(=O)N[C@@H](CC(C)C)C(=O)N[C@@H](C)C(=O)N[C@@H](CC(C)C)C(=O)O [WMULLPLLAL] (H-WM[Cit]LLPLLAL-OH) ... y
C[C@@H](O)[C@H](NC(=O)[C@H](CCCCN)NC(=O)[C@@H]1CCCN1C(=O)[C@@H](NC(=O)[C@H](Cc1ccc(O)cc1)NC(=O)[C@H](Cc1ccccc1)NC(=O)[C@H](Cc1ccccc1)NC(=O)CN)[C@@H](C)O)C(=O)N[C@@H](CCCNC(N)=O)C(=O)O ... n
CC(C)C[C@H](NC(=O)[C@H](C)N)C(=O)N[C@@H](Cc1ccc(O)cc1)C(=O)N[C@@H](CC(C)C)C(=O)N[C@H](C(=O)N[C@@H](CS)C(=O)NCC(=O)N[C@@H](CCC(=O)O)C(=O)N[C@@H](CCCNC(N)=O)C(=O)O)C(C)C ... n
CC(C)C[C@H](NC(=O)[C@H](C)NC(=O)[C@@H](N)CCC(=O)O)C(=O)N[C@@H](Cc1ccc(O)cc1)C(=O)N[C@@H](CC(C)C)C(=O)N[C@H](C(=O)N[C@@H](CS)C(=O)NCC(=O)N[C@@H](CCC(=O)O)C(=O)N[C@@H](CCCNC(N)=O)C(=O)O)C(C)C (H-EALYLVCGE[Cit]-OH) ... n
CC(C)C[C@H](NC(=O)[C@H](Cc1c[nH]cn1)NC(=O)[C@H](CO)NC(=O)CNC(=O)[C@H](CS(=O)(=O)O)NC(=O)[C@H](CC(C)C)NC(=O)[C@@H](N)Cc1c[nH]cn1)C(=O)N[C@H](C(=O)N[C@@H](CCC(=O)O)C(=O)N[C@@H](C)C(=O)O)C(C)C [HLBGSHLVEA] (H-HL[Cya]GSHLVEA-OH) ... n
CSCC[C@H](NC(=O)[C@H](Cc1c[nH]c2ccccc12)NC(=O)[C@H](CC(C)C)NC(=O)[C@H](C)NC(=O)[C@@H](N)CCSC)C(=O)N[C@@H](CCCNC(N)=O)C(=O)N[C@@H](CC(C)C)C(=O)N[C@@H](CC(C)C)C(=O)N1CCC[C@H]1C(=O)N[C@@H](CC(C)C)C(=O)O (H-MALWM[Cit]LLPL-OH) ... y
C[C@@H](O)[C@H](NC(=O)[C@H](CCCCN)NC(=O)[C@@H]1CCCN1C(=O)[C@@H](NC(=O)[C@H](Cc1ccc(O)cc1)NC(=O)[C@H](Cc1ccccc1)NC(=O)[C@H](Cc1ccccc1)NC(=O)CNC(=O)[C@@H](N)CCCNC(N)=O)[C@@H](C)O)C(=O)O ... n
